Catalogue of MIC readings, one per entry.
System: Staphylococcus aureus
Experiment: Antibacterial activity against methicillin-resistant Staphylococcus aureus clinical isolate ATCC10105 incubated for 18 to 20 hrs by double dilution method
Type: functional
Conditions: time 18-20 hrs
Number in µM, nothing else.

CN[C@H](CC(C)C)C(=O)N[C@H]1C(=O)N[C@@H](CC(N)=O)C(=O)N[C@H]2C(=O)N[C@H]3C(=O)N[C@H](C(=O)N[C@H](C(=O)O)c4cc(O)cc(O)c4-c4cc3ccc4O)[C@H](O)c3ccc(c(Cl)c3)Oc3cc2cc(c3O[C@@H]2O[C@H](CO)[C@@H](O)[C@H](O)[C@H]2O[C@H]2C[C@](C)(N)[C@H](O)[C@H](C)O2)Oc2ccc(cc2Cl)[C@H]1O :: 1.56

In the following, a different compound is considered.
# query: MIC of entry "O=C(Nc1ccc(C(F)(F)F)cc1)Nc1ccc(Sc2nc3ccccc3s2)c(Cl)c1"
1.56
